These data points were gathered from patent US4241069A.

# MIC per entry for Microsporum gypseum ATCC 14683
measured attribute: MIC (µg/mL)

Please review the entries below; each comes with its answer.
[[record]]
molecule = "C=C1C(=O)c2cc(Br)ccc2OC1c1ccc(Br)cc1 (stereo not drawn)"
measured_attribute = "MIC"
recorded_result = 50

[[record]]
molecule = "C=C1C(=O)c2ccc(OC)cc2OC1c1ccc(Cl)cc1 (stereo not drawn)"
measured_attribute = "MIC"
recorded_result = 6.2

[[record]]
molecule = "C=C1C(=O)c2ccccc2OC1c1ccc(C)cc1 (stereo not drawn)"
measured_attribute = "MIC"
recorded_result = 6.2

[[record]]
molecule = "C=C1C(=O)c2ccccc2OC1c1ccc(Br)cc1 (stereo not drawn)"
measured_attribute = "MIC"
recorded_result = 6.2

[[record]]
molecule = "C=C1C(=O)c2ccccc2OC1c1ccc(OC)cc1 (stereo not drawn)"
measured_attribute = "MIC"
recorded_result = 12.5

[[record]]
molecule = "C=C1C(=O)c2ccccc2OC1c1ccc([N+](=O)[O-])cc1 (stereo not drawn)"
measured_attribute = "MIC"
recorded_result = 6.2


1. C=C1C(=O)c2ccccc2OC1c1ccc(C#N)cc1 (stereo not drawn)
2. C=C1C(=O)c2ccccc2OC1c1ccc(Cl)cc1 (stereo not drawn)
Input line: Recorded MIC values differ for 1 and 2 ; which one is higher? Please indicate the selected item by its label.
Output line: 1
(1: 12.5 µg/mL, 2: 6.2 µg/mL)

A. C=C1C(=O)c2ccccc2OC1c1ccc(N(C)C)cc1 (stereo not drawn)
B. C=C1C(=O)c2ccccc2OC1c1ccc2ccccc2c1 (stereo not drawn)
C. C=C1C(=O)c2ccccc2OC1c1cccc(Cl)c1 (stereo not drawn)
Input line: Sort (3 molecules) by MIC: min first. Lab note: final answer is the ordered label list.
Output line: C, B, A

P. C=C1C(=O)c2ccccc2OC1c1cccc(OC)c1 (stereo not drawn)
Q. C=C1C(=O)c2ccccc2OC1c1cccc2ccccc12 (stereo not drawn)
Input line: Of P and Q , which carries the smaller reported MIC figure? Please indicate the selected item by its label.
Output line: Q

---

Tested on: A. fumigatus NRRL 163
measured attribute: MIC (µg/mL)

[[record]]
compound = "C=C1C(=O)c2ccccc2OC1(c1ccccc1)c1ccncc1 (stereo not drawn) [Ex. 22, 3-Methylene-2-(4-pyridyl) flavanone]"
unit_tag = "µg/mL"
recorded_result = 25

[[record]]
compound = "C=C1C(=O)c2ccccc2OC1c1ccc(Cl)cc1Cl (stereo not drawn) [Ex. 4, 2',4'-dichloro-3-methylene flavanone]"
unit_tag = "µg/mL"
recorded_result = 50

[[record]]
compound = "C=C1C(=O)c2ccccc2OC1c1ccccc1 (stereo not drawn) [Ex. 1, 3-methylene flavanone]"
unit_tag = "µg/mL"
recorded_result = 6.2

[[record]]
compound = "C=C1C(=O)c2ccccc2OC1c1ccc([N+](=O)[O-])cc1 (stereo not drawn) [Ex. 10, 4'-nitro-3-methylene flavanone]"
unit_tag = "µg/mL"
recorded_result = 12.5


a. C=C1C(=O)c2cc(C)ccc2OC1c1ccccc1 (stereo not drawn) [compound 19, 6-methyl-3-methylene flavanone]
b. C=C1C(=O)c2ccccc2OC1c1ccc(C)cc1 (stereo not drawn) [Ex. 13, 4'-methyl-3-methylene flavanone]
Input line: Of a and b , which carries the smaller reported MIC figure? Please indicate the selected item by its label.
Output line: b
(b: 12.5 µg/mL, a: 25 µg/mL)

---

Tested on: C. guillermondii VM 42
measured attribute: MIC (µg/mL)

[[record]]
molecule = "C=C1C(=O)c2ccccc2OC1c1ccc(Cl)cc1Cl (stereo not shown)"
unit_tag = "µg/mL"
recorded_result = 50


A. C=C1C(=O)c2ccccc2OC1c1ccc(Br)cc1 (stereo not shown)
B. C=C1C(=O)c2ccccc2OC1c1ccc(C#N)cc1 (stereo not shown)
Input line: Of A and B , which carries the smaller reported MIC figure? Please indicate the selected item by its label.
Output line: A

---

# MIC per entry for C. krusei VM 29B
measured attribute: MIC (µg/mL)

Please review the entries below; each comes with its answer.
[[record]]
compound = "C=C1C(=O)c2ccccc2OC1c1ccc(OC)cc1 (stereo not drawn)"
recorded_result = 50

[[record]]
compound = "C=C1C(=O)c2cc(C)ccc2OC1c1ccccc1 (stereo not drawn)"
recorded_result = 25

[[record]]
compound = "C=C1C(=O)c2ccccc2OC1c1cccc(Cl)c1 (stereo not drawn)"
recorded_result = 25

[[record]]
compound = "C=C1C(=O)c2ccccc2OC1c1ccc(C)cc1 (stereo not drawn)"
recorded_result = 25

[[record]]
compound = "C=C1C(=O)c2ccccc2OC1(c1ccccc1)c1ccncc1 (stereo not drawn)"
recorded_result = 100

[[record]]
compound = "C=C1C(=O)c2ccccc2OC1c1ccc(N(C)C)cc1 (stereo not drawn)"
recorded_result = 100

[[record]]
compound = "C=C1C(=O)c2ccccc2OC1c1ccc([N+](=O)[O-])cc1 (stereo not drawn)"
recorded_result = 25

[[record]]
compound = "C=C1C(=O)c2ccccc2OC1c1ccc2ccccc2c1 (stereo not drawn)"
recorded_result = 25


P. C=C1C(=O)c2ccccc2OC1c1cccc2ccccc12 (stereo not drawn)
Q. C=C1C(=O)c2ccc(OC)cc2OC1c1ccc(Cl)cc1 (stereo not drawn)
Input line: Recorded MIC values differ for P and Q ; which one is higher? Please indicate the selected item by its label.
Output line: P
(P: 50 µg/mL, Q: 25 µg/mL)

P. C=C1C(=O)c2ccccc2OC1c1ccc(C#N)cc1 (stereo not drawn)
Q. C=C1C(=O)c2cc(Br)ccc2OC1c1ccc(Br)cc1 (stereo not drawn)
Input line: Recorded MIC values differ for P and Q ; which one is higher? Please indicate the selected item by its label.
Output line: Q
(Q: 100 µg/mL, P: 50 µg/mL)

---

Tested on: Aspergillus niger ATCC 16404
measured attribute: MIC (µg/mL)

[[record]]
molecule = "C=C1C(=O)c2ccccc2OC1c1ccc(C(C)(C)C)cc1 (stereo not shown) [Ex. 14, 4'-t-butyl-3-methylene flavanone]"
recorded_result = 100

[[record]]
molecule = "C=C1C(=O)c2ccccc2OC1c1ccc(Cl)cc1 (stereo not shown) [Ex. 3, 4'-chloro-3-methylene flavanone]"
recorded_result = 25

[[record]]
molecule = "CN(C)CC1C(=O)c2ccccc2OC1c1ccccc1 (stereo not shown) [MA 1347, 3-(dimethylaminomethyl)flavanone, reference compound]"
recorded_result = 50


A. C=C1C(=O)c2ccccc2OC1c1cccc([N+](=O)[O-])c1 (stereo not shown) [compound 9, 3'-nitro-3-methylene flavanone]
B. C=C1C(=O)c2ccccc2OC1c1cccc(Cl)c1 (stereo not shown) [Ex. 2, 3'-chloro-3-methylene flavanone]
Input line: Recorded MIC values differ for A and B ; which one is higher? Please indicate the selected item by its label.
Output line: B

---

System: C. albicans NRRL Y-477
measured attribute: MIC (µg/mL)

[[record]]
compound = "CN(C)CC1C(=O)c2ccccc2OC1c1ccccc1 (stereo not shown) [MA 1347, 3-(dimethylaminomethyl)flavanone, reference compound]"
study_system = "C. albicans NRRL Y-477"
measured_attribute = "MIC"
unit_tag = "µg/mL"
recorded_result = 25

[[record]]
compound = "C=C1C(=O)c2cc(C)ccc2OC1c1ccccc1 (stereo not shown)"
study_system = "C. albicans NRRL Y-477"
measured_attribute = "MIC"
unit_tag = "µg/mL"
recorded_result = 25

[[record]]
compound = "C=C1C(=O)c2ccccc2OC1(c1ccccc1)c1ccncc1 (stereo not shown)"
study_system = "C. albicans NRRL Y-477"
measured_attribute = "MIC"
unit_tag = "µg/mL"
recorded_result = 100

[[record]]
compound = "C=C1C(=O)c2ccccc2OC1c1ccccc1 (stereo not shown)"
study_system = "C. albicans NRRL Y-477"
measured_attribute = "MIC"
unit_tag = "µg/mL"
recorded_result = 50


I. C=C1C(=O)c2ccccc2OC1c1ccc(C)cc1 (stereo not shown)
II. C=C1C(=O)c2ccccc2OC1c1ccc(C#N)cc1 (stereo not shown)
Input line: Recorded MIC values differ for I and II ; which one is higher? Please indicate the selected item by its label.
Output line: II
(II: 50 µg/mL, I: 25 µg/mL)

---

# MIC per entry for Aspergillus niger ATCC 16404

Please review the entries below; each comes with its answer.
[[record]]
compound = "C=C1C(=O)c2cc(Br)ccc2OC1c1ccc(Br)cc1 (stereo not drawn)"
recorded_result = "> 100 µg/mL"

[[record]]
compound = "C=C1C(=O)c2ccccc2OC1(c1ccccc1)c1ccncc1 (stereo not drawn)"
recorded_result = "> 100 µg/mL"

[[record]]
compound = "C=C1C(=O)c2ccccc2OC1(c1ccccc1)c1ccccc1"
recorded_result = "> 100 µg/mL"

[[record]]
compound = "C=C1C(=O)c2ccccc2OC1c1cccc2ccccc12 (stereo not drawn)"
recorded_result = "> 100 µg/mL"

[[record]]
compound = "C=C1C(=O)c2ccccc2OC1c1cccc(OC)c1 (stereo not drawn)"
recorded_result = "> 100 µg/mL"

[[record]]
compound = "C=C1C(=O)c2ccccc2OC1c1ccc(C)cc1 (stereo not drawn)"
recorded_result = "50 µg/mL"


get_value(item= C=C1C(=O)c2ccccc2OC1c1ccc(C#N)cc1 (stereo not drawn) , readout=MIC) returns 50 µg/mL

get_value(item= C=C1C(=O)c2ccccc2OC1c1ccc(Cl)cc1Cl (stereo not drawn) , readout=MIC) returns 100 µg/mL

get_value(item= C=C1C(=O)c2ccccc2OC1c1ccc2ccccc2c1 (stereo not drawn) , readout=MIC) returns > 100 µg/mL
